- target.system: PD-L1 (Homo sapiens)
- Sequence (Q9NZQ7 18-239): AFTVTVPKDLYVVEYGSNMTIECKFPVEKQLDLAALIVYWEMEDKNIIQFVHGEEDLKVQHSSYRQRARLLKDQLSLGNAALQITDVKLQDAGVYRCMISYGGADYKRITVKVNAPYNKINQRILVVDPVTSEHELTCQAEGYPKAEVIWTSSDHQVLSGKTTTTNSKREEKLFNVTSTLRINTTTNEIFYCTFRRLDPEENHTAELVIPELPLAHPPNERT
- test.description: 1H-15N HMQC NMR, w-AIDA-NMR KD, 1H NMR
- Assay type: binding
- Design: gene CD274; ectodomain, PD-L1-long (amino acids 18–239); PD-L1-short in 1H-15N HMQC
pKd: −log10 of the molar value.
value.type: pKd

[[record]]
compound = "OCc1cccc(-c2ccc3c(c2)OCCO3)c1Cl"
measured = "~1.40"


====

- target.system: PD-L1 (Homo sapiens)
- test.description: w-AIDA-NMR KD, 1H-15N HMQC NMR, 1H NMR, DSF
- Type: binding
- Design: gene CD274; ectodomain, PD-L1-long (amino acids 18–239); PD-L1-short in 1H-15N HMQC
pKd: −log10 of the molar value.
value.type: pKd

[[record]]
compound = "Cc1c(N)cccc1-c1cccc(N)c1C"
measured = "~1.70"

